Molecular target: Trace amine-associated receptor 1 (Homo sapiens) (UniProt Q96RJ0)
Sequence (whole entry): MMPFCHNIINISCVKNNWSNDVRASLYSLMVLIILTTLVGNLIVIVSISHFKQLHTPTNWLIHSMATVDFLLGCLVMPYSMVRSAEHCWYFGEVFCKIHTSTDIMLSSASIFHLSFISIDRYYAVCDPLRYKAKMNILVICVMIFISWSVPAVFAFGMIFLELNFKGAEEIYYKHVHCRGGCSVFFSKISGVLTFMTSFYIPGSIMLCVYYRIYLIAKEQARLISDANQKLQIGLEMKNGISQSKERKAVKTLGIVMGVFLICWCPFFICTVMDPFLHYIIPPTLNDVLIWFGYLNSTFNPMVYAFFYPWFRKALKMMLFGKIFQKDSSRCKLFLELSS
Assay: Agonist activity at recombinant human TAAR1 expressed in CHO-K1 cells assessed as maximal increase in intracellular cAMP incubated for 30 mins by HTRF analysis relative to control
Assay type: functional, cell-based
Settings: filed as agonist
observable: Emax (%)
// note: answer is a bare numeric in %

molecule	Emax / %
CNC[C@H](O)c1ccc(O)cc1	113

Item NC[C@@H]1OCCc2ccsc21 has what recorded Emax? 110

Repeat with CNCC1OCCCc2ccsc21 (racemic) 113

Now consider NCCc1c[nH]c2ccc(O)cc12 . 75

Moving on to NCC[C@@H]1OCCc2ccsc21 105

Entry to check: CNC[C@@H]1OCCc2sccc21 110

Lookup CNC[C@]1(C)OCCc2ccsc21 95

Follow-up entry: NCCc1cccc(O)c1 109

====

Target: UniProtKB Q96RJ0
Assay: Agonist activity at recombinant human TAAR1 expressed in CHO-K1 cells assessed as maximal increase in intracellular cAMP incubated for 30 mins by HTRF analysis relative to control
Format: functional, cell-based
Settings: filed as agonist
Catalogue of Emax readings, one per entry.
Provide only the numeric value, understood in %.

Observe how each entry below is paired with its result.
compound	observable	endpoint.value
NC[C@@H](O)c1ccc(O)cc1	Emax	108
NCCc1ccccc1	Emax	111
CN(C)C[C@@H]1OCCc2ccsc21	Emax	112

Request the reported Emax associated with CNCC1OCCc2cscc21 (stereo unspecified) 112

Item: NCC1OCCCc2ccsc21 (racemic) 111

What about this compound? NCC(O)c1ccc(O)c(O)c1 (stereo unspecified) 99

NC[C@H](O)c1ccc(O)cc1 ? 116

Continue with CNCCc1ccccc1 111

Same question, NCCc1ccc(O)c(O)c1 this time 97

Can you handle NCCc1ccc(O)cc1 next? 111

Now this one: NCCc1ccc(Oc2ccc(O)cc2)c(I)c1 105

What do you get for NCCc1c[nH]c2ccccc12 ? 102

Also check NCCc1ccsc1 112

Let us now turn to COc1cc(CCN)ccc1O 101

Field entry: NCCc1cccs1 113

Another compound: c1cc2c(s1)[C@H](CN1CCCC1)OCC2 113

====

Biological target: UniProt Q96RJ0
Test: Agonist activity at recombinant human TAAR1 expressed in CHO-K1 cells assessed as increase in intracellular cAMP incubated for 30 mins by HTRF analysis
// class assignment uses EC50 with these ranges: lower: < 60 nM; middle: ≥ 60 nM and < 2000 nM; upper: ≥ 2000 nM

# count of solved cases: 8
compound	class.assignment
NCCc1ccccc1	lower
NCCc1cccs1	lower
NCC(O)c1ccc(O)c(O)c1 (stereo not given)	upper
NCCc1cccc(O)c1	middle
NCC1OCCCc2ccsc21 (racemic)	middle
CNC[C@H](O)c1ccc(O)cc1	upper
NCCc1c[nH]c2ccccc12	upper
CNCC1OCCCc2ccsc21 (racemic)	middle

Hey, which category is NCCc1c[nH]c2ccc(O)cc12 in, do you know? upper

Okay, and CNCCc1ccccc1 ? middle
